# Tested on: PANC-1
# protocol-details: SRB colorimetric assay of cell growth and viability, PANC-1
# Assay type: cell-based, human
# condition-set: 48 hours exposure
Where a SMILES comes first, the peptide text is derived from it. Bridges are numbered along the chain shown (N, C = ends). [ ]: non-standard residue; d: D form. The star is where a group is joined. d(aIle) = CC[C@H](C)[C@@H](N)C(=O)O; d(aThr) = C[C@@H](O)[C@@H](N)C(=O)O; hCha = N[C@@H](CCC1CCCCC1)C(=O)O; Hexanoyl(5-Me) = CC(C)CCCC(=O)*; Myristoyl = CCCCCCCCCCCCCC(=O)*; Orn = NCCC[C@H](N)C(=O)O; Dhb = C/C=C(\N)C(=O)O
readout: TGI PANC-1 (Molar)
Give a bare numeral; the unit Molar is implied.

Solved cases (8 shown):
compound="C/C=C1\\NC(=O)[C@H](Cc2ccccc2)NC(=O)[C@@H](C(C)C)NC(=O)[C@@H]([C@@H](C)CC)NC(=O)[C@H](NC(=O)[C@H](NC(=O)[C@H](CCCN)NC(=O)[C@H]2CCCN2C(=O)[C@H](NC(=O)[C@H](NC(=O)[C@@H](NC(=O)[C@H](NC(=O)CCCC(C)C)C(C)C)[C@@H](C)O)C(C)C)C(C)C)[C@@H](C)CC)[C@@H](C)OC(=O)[C@H](C(C)C)NC1=O [Compound 46, [D-Val^11]-KF]" target_under_test=PANC-1 readout_unit=Molar reported_measurement=6.77E−06
compound="C/C=C1\\NC(=O)[C@H](Cc2ccccc2)NC(=O)[C@@H](C(C)C)NC(=O)[C@@H]([C@@H](C)CC)NC(=O)[C@H](NC(=O)[C@H](NC(=O)[C@H](CCCN)NC(=O)[C@H]2CCCN2C(=O)[C@H](NC(=O)[C@H](CCC2CCCCC2)NC(=O)[C@@H](NC(=O)[C@H](NC(=O)CCCC(C)C)C(C)C)[C@@H](C)O)C(C)C)[C@@H](C)CC)[C@@H](C)OC(=O)[C@H](C(C)C)NC1=O [Compound 9, [hCh^11]-KF] ({Hexanoyl(5-Me)}-[dV]T[hCha][dV][dP][Orn][d(aIle)][d(aThr)][d(aIle)][dV]F[Dhb]V; ester 8-C)" target_under_test=PANC-1 readout_unit=Molar reported_measurement=5.27E−06
compound="C/C=C1\\NC(=O)[C@H](Cc2ccccc2)NC(=O)[C@@H](C(C)C)NC(=O)[C@@H]([C@@H](C)CC)NC(=O)[C@H](NC(=O)[C@H](NC(=O)[C@H](CCCN)NC(=O)[C@H]2CCCN2C(=O)[C@H](NC(=O)[C@@H](NC(=O)[C@H](CCC(=O)O)NC(=O)CCCC(C)C)C(C)C)C(C)C)[C@@H](C)CC)[C@@H](C)OC(=O)[C@H](C(C)C)NC1=O [Compound 56, [Glu^12, noD-Val^13]-KF] ({Hexanoyl(5-Me)}-EV[dV][dP][Orn][d(aIle)][d(aThr)][d(aIle)][dV]F[Dhb]V; ester 7-C)" target_under_test=PANC-1 readout_unit=Molar reported_measurement=7.11E−06
compound="C/C=C1\\NC(=O)[C@H](Cc2ccccc2)NC(=O)[C@@H](C(C)C)NC(=O)[C@@H]([C@@H](C)CC)NC(=O)[C@H](NC(=O)[C@H](NC(=O)[C@H](CCCN)NC(=O)[C@H]2CCCN2C(=O)[C@H](NC(=O)[C@@H]2CCCN2C(=O)[C@@H](NC(=O)[C@H](NC(=O)CCCC(C)C)C(C)C)[C@@H](C)O)C(C)C)[C@@H](C)CC)[C@@H](C)OC(=O)[C@H](C(C)C)NC1=O [Compound 47, [Pro^11]-KF] ({Hexanoyl(5-Me)}-[dV]TP[dV][dP][Orn][d(aIle)][d(aThr)][d(aIle)][dV]F[Dhb]V; ester 8-C)" target_under_test=PANC-1 readout_unit=Molar reported_measurement=6.78E−06
compound="C/C=C1\\NC(=O)[C@H](Cc2ccccc2)NC(=O)[C@@H](C(C)C)NC(=O)[C@@H]([C@@H](C)CC)NC(=O)[C@H](NC(=O)[C@H](NC(=O)[C@H](CCCN)NC(=O)[C@H]2CCCN2C(=O)[C@H](NC(=O)[C@@H](NC(=O)[C@@H](NC(=O)[C@H](NC(=O)Cc2ccc(C(F)(F)F)cc2)C(C)C)[C@@H](C)O)C(C)C)C(C)C)[C@@H](C)CC)[C@@H](C)OC(=O)[C@H](C(C)C)NC1=O [Compound 25, [p-CF3PhAc^14]-KF]" target_under_test=PANC-1 readout_unit=Molar reported_measurement=3.07E−06
compound="C/C=C1\\NC(=O)[C@H](Cc2ccccc2)NC(=O)[C@@H](C(C)C)NC(=O)[C@@H]([C@@H](C)CC)NC(=O)[C@H](NC(=O)[C@H](NC(=O)[C@H](CCCN)NC(=O)[C@H]2CCCN2C(=O)[C@H](NC(=O)[C@H](CCC(=O)O)NC(=O)[C@@H](NC(=O)[C@H](NC(=O)CCCC(C)C)C(C)C)[C@@H](C)O)C(C)C)[C@@H](C)CC)[C@@H](C)OC(=O)[C@H](C(C)C)NC1=O [Compound 51, [Glu^11]-KF] ({Hexanoyl(5-Me)}-[dV]TE[dV][dP][Orn][d(aIle)][d(aThr)][d(aIle)][dV]F[Dhb]V; ester 8-C)" target_under_test=PANC-1 readout_unit=Molar reported_measurement=6.63E−06
compound="C/C=C1\\NC(=O)[C@H](Cc2ccccc2)NC(=O)[C@@H](C(C)C)NC(=O)[C@@H]([C@@H](C)CC)NC(=O)[C@H](NC(=O)[C@H](NC(=O)[C@H](CCCN)NC(=O)[C@H]2CCCN2C(=O)[C@H](NC(=O)CCCCCCCCCCCCC)C(C)C)[C@@H](C)CC)[C@@H](C)OC(=O)[C@H](C(C)C)NC1=O [Compound 32] (Myristoyl-[dV][dP][Orn][d(aIle)][d(aThr)][d(aIle)][dV]F[Dhb]V; ester 5-C)" target_under_test=PANC-1 readout_unit=Molar reported_measurement=3.12E−06
compound="C/C=C1\\NC(=O)[C@H](Cc2ccccc2)NC(=O)[C@@H](C(C)C)NC(=O)[C@@H]([C@@H](C)CC)NC(=O)[C@H](NC(=O)[C@H](NC(=O)[C@H](CCCN)NC(=O)[C@H]2CCCN2C(=O)[C@H](NC(=O)CNC(=O)[C@@H](NC(=O)[C@H](NC(=O)CCCC(C)C)C(C)C)[C@@H](C)O)C(C)C)[C@@H](C)CC)[C@@H](C)OC(=O)[C@H](C(C)C)NC1=O [Compound 42, [Gly^11]-KF] ({Hexanoyl(5-Me)}-[dV]TG[dV][dP][Orn][d(aIle)][d(aThr)][d(aIle)][dV]F[Dhb]V; ester 8-C)" target_under_test=PANC-1 readout_unit=Molar reported_measurement=6.96E−06

Attention now shifts to the item below.
## Input Please look at this compound and report its TGI PANC-1: C/C=C1\NC(=O)[C@H](Cc2ccccc2)NC(=O)[C@@H](C(C)C)NC(=O)[C@@H]([C@@H](C)CC)NC(=O)[C@H](NC(=O)[C@H](NC(=O)[C@H](CCCN)NC(=O)[C@H]2CCCN2C(=O)[C@H](NC(=O)[C@@H](NC(=O)[C@@H](NC(=O)[C@@H](CCC(N)=O)NC(=O)CCCC(C)C)[C@@H](C)O)C(C)C)C(C)C)[C@@H](C)CC)[C@@H](C)OC(=O)[C@H](C(C)C)NC1=O [Compound 40, [D-Gln^13]-KF]
## Output 3.01E−07
